# Tested on: P. falciparum stage V gametocytes
# Design: BacTiter-Glo ATP luminescence viability of purified stage V gametocytes in 384-well plates, per cent inhibition versus DMSO
# Condition: 48 h, 5 µM; inhibitor
Among all 13,000 compounds or so, about 3,200 (25%) showed an effect of 50% or more. This is one part of the list.
Lab note: anything with % Inhibition at or over 30% counts as 1.0; the rest go in 0.0.

Consider the worked cases shown below.
CC(=O)Nc1ccc(CN2CCC(N(C)c3cc(NC(=O)c4cccs4)ccn3)CC2)cc1 [TCMDC-134971] :: 0.0
Cc1cccc2nc(-c3ccc(-c4ccc(CN5CCC(C(N)=O)CC5)cc4)s3)[nH]c12.O=C(O)C(F)(F)F [TCMDC-132695] :: 0.0
COC(=O)c1cccc(CNCc2cccc(-c3cccc(-c4nc5cc(C(F)(F)F)ccc5[nH]4)c3)c2)c1.O=C(O)C(F)(F)F [TCMDC-132949] :: 0.0

Is % Inhibition for Cc1cccc2nc(-c3ccc(-c4ccc(CN5CCCC(O)C5)cc4)s3)[nH]c12.O=C(O)C(F)(F)F (stereo not drawn) [TCMDC-133827] at or above 30%? 0.0

###

# Test system: P. falciparum stage V gametocytes
# Design: BacTiter-Glo ATP luminescence viability of purified stage V gametocytes in 384-well plates, per cent inhibition versus DMSO
# Condition: 48 h, 5 µM; inhibitor
Screen size: about 13,000 compounds; about 3,200 (25%) showed an effect of 50% or more. Some of the results follow.
Entries annotated with measured % Inhibition
I only need the number, in %, no unit after it.

Worked set:
Cc1cccc2nc(-c3ccc(-c4ccc(NC(=O)c5cncn5C)cc4)s3)[nH]c12 [TCMDC-137067] :: 9.475
Cn1cnc2c(Nc3ccncc3)nc(-c3ccc(OC(F)(F)F)cc3)nc21 [TCMDC-141276] :: -18.84
COc1ccccc1CCNc1nc(C)cc(N[C@@H](CC(C)C)C(=O)NCc2cccs2)n1 [TCMDC-134806] :: 64.45

May I ask what % Inhibition has been recorded for Fc1ccccc1COc1ccc(Nc2ncnc3ccc(I)cc23)cc1Cl [TCMDC-138627] ? 9.829

May I ask what % Inhibition has been recorded for Cc1cc(N[C@@H](CC(C)C)C(=O)NCCc2ccccc2)nc(NCCc2cccs2)n1 [TCMDC-134816] ? 67

May I ask what % Inhibition has been recorded for CC(C)(C)c1ccc(-c2ccccc2CNC(=O)c2cccc(O)c2)cc1 [TCMDC-136181] ? 21.07

May I ask what % Inhibition has been recorded for CCCc1cc(Cc2cnc(N)nc2N)cc(OCCCCCC(=O)O)c1OC [TCMDC-137182] ? 2.989

May I ask what % Inhibition has been recorded for Cn1cncc1C(=O)Nc1cccc(-c2ccc(-c3nc4ccccc4[nH]3)s2)c1 [TCMDC-137055] ? 40.39

May I ask what % Inhibition has been recorded for COc1ccc(NC(=O)[C@H](CC(C)C)Nc2cc(C)nc(NCCc3cccs3)n2)cc1 [TCMDC-134875] ? -27.08

May I ask what % Inhibition has been recorded for Cc1cc(N[C@@H](CC(C)C)C(=O)NCCc2ccccc2)nc(Nc2ccccc2)n1 [TCMDC-134742] ? -5.247

May I ask what % Inhibition has been recorded for c1ccc2c(c1)ncn2-c1ccnc(Nc2ccncc2)n1 [TCMDC-138908] ? 15.51

Cited source: paper PMC4552634
